Numbers sourced from ChEMBL document CHEMBL5113538.

System: BaF3
Assay Procedure: Cytotoxicity against mouse BaF3 cells expressing EGFR L858R/T790M/C797S mutant assessed as reduction in cell viability measured after 72 hrs by cell titre glo luminescence assay
Type: functional, cell-based
Reported Conditions: BaF3, 72 h
Reported Metric: pIC50
By convention, pIC50 is the negative base-10 log of a molar concentration.

# annotated cases, reported pIC50 shown
Compound	Measurement
O=C(Nc1nccs1)C(c1ncn2c1CCC2)N1Cc2c(cc(C#Cc3ccc(CN4CCC(CO)CC4)cc3)cc2C(F)(F)F)C1=O (stereo not drawn)	9.30
O=C(Nc1nccs1)C(c1ncn2c1CCC2)N1Cc2ccc(C#Cc3cccnc3)cc2C1=O (stereo not drawn)	5.92
O=C(Nc1nccs1)C(c1ncn2c1CCC2)N1Cc2c(F)cc(C#Cc3cccnc3)cc2C1=O (stereo not drawn)	7.92
O=C(Nc1nccs1)C(c1ncn2c1CCC2)n1cc2c(Cl)cc(-c3ccc(N4CCOCC4)cc3)c(Cl)c2n1 (stereo not drawn)	7.51

// recorded pIC50 for CC1(C)CCc2c(C(C(=O)Nc3nccs3)N3Cc4c(cc(C#Cc5ccc(CN6CCC(CO)CC6)cc5)cc4C(F)F)C3=O)ncn21 (stereo not drawn) : 9.00

Consider Nc1ccc(C#Cc2cc(F)c3c(c2)C(=O)N(C(C(=O)Nc2nccs2)c2ncn4c2CCC4)C3)cn1 (stereo not drawn) . Its measured pIC50 is 6.70
